Measured values drawn from the supplement of paper PMC4206467 for this set.

# Tested on: Perkinsus marinus PRA240
# Experimental Details: ATP content (proliferation) relative to DMSO control; higher = more parasite growth (less inhibition)
# Test Conditions: 20 µM; 4 days
Property Label: ATP content (%)
The answer is to be given in %; state only the numeric part.

The cases that follow already have their ATP content on record.
> print(dat)
                                   compound             target.system  reported
1  CCCCCCc1cc(O)c2c3c(c(=O)oc2c1)CCC(C)C3 (stereo not given)  Perkinsus marinus PRA240      33.1
2       COc1ccc(CN2CCN(Cc3ccccc3)CC2)c(O)c1  Perkinsus marinus PRA240       194
3  CCOc1c(Cl)cc(CNC(C)C(O)c2ccccc2)cc1OC (stereo not given)  Perkinsus marinus PRA240      75.7
4         Oc1ccc(C(=C(Cl)Cl)c2ccc(O)cc2)cc1  Perkinsus marinus PRA240       137

query: If you can, please state the reported ATP content value of CN(N=O)C1=C(NC2CCCCC2)C(=O)c2ccccc2C1=O .
result: 45.9
